Task for the reader: assign each of the following compounds its reported pIC50.
Molecular target: KRAS G13D (Homo sapiens, UniProt P01116+P62937, G13D)
Sequence (P01116 1-169 isoform P01116-2 G13D limits assumed): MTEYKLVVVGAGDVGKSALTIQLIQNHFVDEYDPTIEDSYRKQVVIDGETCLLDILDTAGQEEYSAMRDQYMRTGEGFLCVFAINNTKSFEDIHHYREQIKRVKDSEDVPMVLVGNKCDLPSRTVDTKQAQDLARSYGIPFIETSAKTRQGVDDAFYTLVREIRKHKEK
Sequence (P62937 whole entry): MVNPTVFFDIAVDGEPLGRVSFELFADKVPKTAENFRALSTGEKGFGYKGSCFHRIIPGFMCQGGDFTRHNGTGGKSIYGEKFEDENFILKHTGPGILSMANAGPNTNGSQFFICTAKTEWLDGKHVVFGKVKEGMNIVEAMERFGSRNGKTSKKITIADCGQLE
Assay: Disruption of BRAF RBD interaction with Ras (FRET / MOA assay, with Cyclophilin A)
Type: biochemical
Conditions: KRAS G13D FRET data IC50, KRAS G13D
pIC50: −log10 of the molar value.

Request: Look at this compound and give its reported pIC50. CCn1c(-c2cccnc2[C@H](C)OC)c2c3cc(ccc31)-c1csc(n1)C[C@H](NC(=O)[C@H](C(C)C)N(C)C(=O)N1CCC[C@H](CN(C)C)C1)C(=O)N1CCC[C@H](N1)C(=O)OCC(C)(C)C2 (atropisomer, axis not shown)
Response: 7.00 to 8.00

Request: Same question for `CCn1c(-c2cnccc2COC)c2c3cc(ccc31)-c1cc(O)cc(c1)C[C@H](NC(=O)[C@H](C(C)C)N(C)C(=O)[C@H]1CCN(S(=O)(=O)N3CC(O)C3)C1)C(=O)N1CCC[C@H](N1)C(=O)OCC(C)(C)C2` please.
Response: 5.00 to 6.00

Request: // query: `CCn1c(-c2cnccc2COC)c2c3cc(ccc31)-c1cc(O)cc(c1)C[C@H](NC(=O)[C@H](C(C)C)N(C)C(=O)[C@@H]1NC[C@@H]3C[C@@H]31)C(=O)N1CCC[C@H](N1)C(=O)OCC(C)(C)C2`
Response: 6.00 to 7.00

Request: Now try CCn1c(-c2cccnc2[C@H](C)OC)c2c3cc(ccc31)-c1csc(n1)C[C@H](NC(=O)N1CCC[C@@H]1COC)C(=O)N1CCC[C@H](N1)C(=O)OCC(C)(C)C2 (atropisomer, axis not shown) .
Response: 6.00 to 7.00

Request: Also `CCN1C[C@@H](C(=O)N(C)[C@H](C(=O)N[C@H]2Cc3cc(O)cc(c3)-c3ccc4c(c3)c(c(-c3cnccc3COC)n4CC)CC(C)(C)COC(=O)[C@@H]3CCCN(N3)C2=O)C(C)C)CC1=O` ?
Response: 6.00 to 7.00

Request: Same question, C=CC(=O)N1CCO[C@@]2(CCN(C(=O)N(C)[C@H](C(=O)N[C@H]3Cc4nc(cs4)-c4ccc5c(c4)c(c(-c4cccnc4[C@H](C)OC)n5CC(F)(F)F)CC(C)(C)COC(=O)C4CCCN(N4)C3=O)C(C)C)C2)C1 (stereo partly drawn) this time
Response: 6.00 to 7.00

Request: Okay, and `CCn1c(-c2cccnc2[C@H](C)OC)c2c3cc(ccc31)-c1csc(n1)C[C@H](NC(=O)[C@H](C(C)C)N(C)C(=O)OC)C(=O)N1CCC[C@H](N1)C(=O)OCC(C)(C)C2` ?
Response: 5.00 to 6.00

Request: What about this compound? `CCn1c(-c2cccnc2[C@H](C)OC)c2c3cc(ccc31)-c1cc(O)cc(c1)C[C@H](NC(=O)[C@H](C(C)C)N(C)C(=O)[C@@H]1CC1(F)F)C(=O)N1CCC[C@H](N1)C(=O)OCC(C)(C)C2`
Response: 6.00 to 7.00

Request: Try this compound next: `CCn1c(-c2cccnc2[C@H](C)OC)c2c3cc(ccc31)-c1csc(n1)C[C@H](NC(=O)[C@H](C(C)C)N(C)C(=O)N1CCOC[C@@H]1CN(C)C)C(=O)N1CCC[C@H](N1)C(=O)OCC(C)(C)C2`
Response: 5.00 to 6.00
